Tested on: MCF-7 cells
ASSAY: Cell anti-proliferation / toxicity assay (CCK-8), MCF-7
Format: cell-based
ASSAY_CONDITIONS: Homo sapiens, MCF7; Table 6; 72 h, CCK-8; mean ± SD of triplicates; read-out: EC50 MCF-7
Measured EC50 by item
Note: unit µM is implicit; provide only the numeric part.

Observe how each entry below is paired with its result.
| COMPOUND | MEASURED_RESULT |
| --- | --- |
| COc1ccc2c(NC3CCN(Cc4ccccc4)CC3)nc(NCCNC(=O)CCCCCCC(=O)NO)nc2c1 | 79.4 |
| COc1ccc2c(NC3CCN(Cc4ccccc4)CC3)nc(NCCNC(=O)CCCCCC(=O)NO)nc2c1 | 37.4 |

Measured EC50, COc1cc2nc(N3CCCN(C)CC3)nc(NC3CCN(Cc4ccccc4)CC3)c2cc1OC [BIX-01294, reference compound] : 8.1

---

Measured EC50 by item
Test system: MCF-7 cells
ASSAY: Cell anti-proliferation / toxicity assay (CCK-8), MCF-7
Format: cell-based
ASSAY_CONDITIONS: Homo sapiens, MCF7; Supplementary Table 4; 72 h, CCK-8; >100 = not reached at 100 μM; read-out: EC50 MCF-7

Observe how each entry below is paired with its result.
| SMILES_RECORD | PARAMETER_MEASURED | MEASURED_RESULT |
| --- | --- | --- |
| COc1ccc2c(NCCNC(=O)CCCCCCC(=O)NO)nc(N3CCCN(C)CC3)nc2c1 | EC50 | > 100 µM |
| COc1cc2nc(N3CCCN(C)CC3)nc(NC3CCN(C(=O)CCCCCC(=O)NO)CC3)c2cc1OC | EC50 | > 100 µM |
| COc1cc2nc(NCCNC(=O)CCCCCCC(=O)NO)nc(NC3CCN(C)CC3)c2cc1OC | EC50 | > 100 µM |

API: the following record is the query input.
Measured EC50, `COc1ccc2c(NC3CCN(Cc4ccccc4)CC3)nc(NCCNC(=O)CCCC(=O)NO)nc2c1` : 57.3 µM

---

Measured inhibition at 5 µM by item
SYSTEM: Mouse histone methyltransferase G9a (969-1263) (Mus musculus, UniProt Q9Z148)
Construct: The 6His-sumo mG9a (969-1263) protein was purified using the following procedure; 6His-sumo (N, cleaved yes); made in house; host or cells: Escherichia coli BL21 (DE3)
Sequence (Q9Z148 969-1263): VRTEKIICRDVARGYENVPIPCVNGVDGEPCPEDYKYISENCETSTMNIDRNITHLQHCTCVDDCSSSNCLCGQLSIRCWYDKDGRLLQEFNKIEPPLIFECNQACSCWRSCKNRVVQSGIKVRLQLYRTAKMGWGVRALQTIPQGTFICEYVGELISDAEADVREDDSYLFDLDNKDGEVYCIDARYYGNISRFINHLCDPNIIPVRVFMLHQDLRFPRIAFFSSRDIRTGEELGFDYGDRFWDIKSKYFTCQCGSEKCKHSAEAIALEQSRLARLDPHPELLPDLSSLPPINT
ASSAY: MALDI-TOF methylation study of G9a enzymatic activity (H3 peptide, SAM)
Format: biochemical
ASSAY_CONDITIONS: Supplementary Table 1; inhibitor 5 μM, 30 min; average of 3 values
Note: unit % is implicit; provide only the numeric part.

Observe how each entry below is paired with its result.
| COMPOUND | MEASURED_RESULT |
| --- | --- |
| COc1ccc2c(NC3CCN(C)CC3)nc(NCCNC(=O)CCCCC(=O)NO)nc2c1 [Compound 15a] | 47.9 |
| COc1cc2nc(NCCNC(=O)CCCCCCC(=O)NO)nc(NC3CCN(C(C)C)CC3)c2cc1OC [Compound 4a] | 11.2 |
| COc1cc2nc(N3CCCN(C)CC3)nc(NC3CCN(C(=O)CCCCCCC(=O)NO)CC3)c2cc1OC [Compound 19] | 10.7 |
| COc1ccc2c(NC3CCN(Cc4ccccc4)CC3)nc(NCCNC(=O)CCCCCCC(=O)NO)nc2c1 [Compound 13] | 24.9 |
| COc1ccc2c(NC3CCN(Cc4ccccc4)CC3)nc(NCCNC(=O)CCCC(=O)NO)nc2c1 [Compound 16] | 40.3 |

Measured inhibition at 5 µM, COc1cc2nc(NCCNC(=O)CCCCCC(=O)NO)nc(NC3CCN(Cc4ccccc4)CC3)c2cc1OC [Compound 5b] : 38

Measured inhibition at 5 µM, COc1cc2nc(N3CCCN(C)CC3)nc(NC3CCN(C(=O)CCCCCC(=O)NO)CC3)c2cc1OC [Compound 20] : 14.6

---

SYSTEM: Mouse histone methyltransferase G9a (969-1263) (Mus musculus)
Construct: The 6His-sumo mG9a (969-1263) protein was purified using the following procedure; 6His-sumo (N, cleaved yes); made in house; host or cells: Escherichia coli BL21 (DE3)
ASSAY: MALDI-TOF methylation study of G9a enzymatic activity (H3 peptide, SAM)
Assay type: biochemical
ASSAY_CONDITIONS: Supplementary Table 1; inhibitor 5 μM, 30 min; average of 3 values
Experimental: Figure 3 compounds were synthesized from the commercially available starting material 1. […] Initially, we evaluated the G9a potential after the introduction of HDAC pharmacophore. […] The in vitro inhibition of G9a by the synthesized compounds were measured by MALDI-TOF mass spectrum (Bruker MALDI TOF/TOF Analyzer). […] The results of mass spectrum were analyzed using the Bruker flex analysis software, a detailed description of data processing is provided as supplementary information (S3). […]
PARAMETER_MEASURED: inhibition at 5 µM (%)
Note: unit % is implicit; provide only the numeric part.

| COMPOUND | inhibition at 5 µM / % |
| --- | --- |
| COc1cc2nc(NCCNC(=O)CCCC(=O)NO)nc(NC3CCN(C(C)C)CC3)c2cc1OC [Compound 7a] | 15 |

Measured inhibition at 5 µM, COc1cc2nc(N3CCCN(C)CC3)nc(NC3CCN(Cc4ccccc4)CC3)c2cc1OC [BIX-01294, reference compound] : 77.7

Measured inhibition at 5 µM, COc1cc2nc(NCCNC(=O)CCCCCCC(=O)NO)nc(NC3CCN(C)CC3)c2cc1OC [Compound 4] : 27

Measured inhibition at 5 µM, COc1cc2nc(NCCNC(=O)CCCCC(=O)NO)nc(NC3CCN(C)CC3)c2cc1OC [Compound 6] : 26.6
